target-under-test: T1, Anti-PSMA Fab (SEQ ID NOs: 19, 20)
T1 construct: Biotinylated and captured on neutravidin coated plates in the phage ELISA; also called 006 PSMA Fab
assay-procedure: phage binding ELISA; Fab-coated wells pre-incubated with PSMA antigen as competitor
Assignment: determine reported Anti-PSMA Fab signal in the presence of PSMA for the given binders.

Incoming: Look up and report measured Anti-PSMA Fab signal in the presence of PSMA for this entry: IEKWCIPQWMCSAA [Phage-2278]
Outgoing: 0.0739

Incoming: Look up and report measured Anti-PSMA Fab signal in the presence of PSMA for this entry: GINWCIPPWMCQSE [Phage-2273]
Outgoing: 0.119

Incoming: Look up and report measured Anti-PSMA Fab signal in the presence of PSMA for this entry: AVKLCTPMWMCMGF [Phage-2282]
Outgoing: 0.0984

Incoming: Look up and report measured Anti-PSMA Fab signal in the presence of PSMA for this entry: IPRMCTPAWMCEWS [Phage-2279]
Outgoing: 0.0738

Incoming: Look up and report measured Anti-PSMA Fab signal in the presence of PSMA for this entry: IIKWCKPLWMCESI [Phage-2277]
Outgoing: 0.104

Incoming: Look up and report measured Anti-PSMA Fab signal in the presence of PSMA for this entry: FAKWCTPQWMCSAM [Phage-2269]
Outgoing: 0.225

Incoming: Look up and report measured Anti-PSMA Fab signal in the presence of PSMA for this entry: LEKWCTPPWMCMGF [Phage-2276]
Outgoing: 0.0948

Incoming: Look up and report measured Anti-PSMA Fab signal in the presence of PSMA for this entry: GEKWCIPSWMCEIT [Phage-2275]
Outgoing: 0.0796

Incoming: Look up and report measured Anti-PSMA Fab signal in the presence of PSMA for this entry: MPKWCIPTWMCEST [Phage-2281]
Outgoing: 0.054

Incoming: Look up and report measured Anti-PSMA Fab signal in the presence of PSMA for this entry: YTNWCIPSWMCEGF [Phage-2274]
Outgoing: 0.0789

Incoming: Look up and report measured Anti-PSMA Fab signal in the presence of PSMA for this entry: VVKWCSPPWMCEYF [Phage-2270]
Outgoing: 0.0886

Incoming: Look up and report measured Anti-PSMA Fab signal in the presence of PSMA for this entry: AENWCRPSWMCEGF [Phage-2268]
Outgoing: 0.0717

Incoming: Look up and report measured Anti-PSMA Fab signal in the presence of PSMA for this entry: FAILCKPMWMCEHI [Phage-2280]
Outgoing: 0.0895

Incoming: Look up and report measured Anti-PSMA Fab signal in the presence of PSMA for this entry: HQNWCIPAWMCHGM [Phage-2271]
Outgoing: 0.0592

Incoming: Look up and report measured Anti-PSMA Fab signal in the presence of PSMA for this entry: WDMRCTPIWMCEGF [Phage-2272]
Outgoing: 0.0882
